B1: GAGE1 (parent)
chain: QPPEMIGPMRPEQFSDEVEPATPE

# Variants of: B1
# experiment-notes: protein stability index of a GFP-peptide fusion (GPS, HEK-293T) (PSI 1-6); higher = more stable;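 further: lentivirally expressed fusions sorted by FACS into six bins by GFP to DsRed ratio, PSI derived from sequencing read proportions per bin multiplied by bin number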
# test-settings: c terminus: a fixed tail appended
property-label: protein stability index

Example variants with recorded protein stability index:
{"variant-label": "R10F", "recorded-result": 5.47}
{"variant-label": "E19P", "recorded-result": 4.43}
{"variant-label": "P23G", "recorded-result": 5.2}
{"variant-label": "T22G", "recorded-result": 5.15}
{"variant-label": "M5E", "recorded-result": 5.15}

Ask: Report protein stability index, nothing else, for this variant: `P2M`
Reply: 4.59

Ask: Report protein stability index, nothing else, for this variant: `E4I`
Reply: 5.52

Ask: Report protein stability index, nothing else, for this variant: `P23S`
Reply: 5.14

Ask: Report protein stability index, nothing else, for this variant: `V18A`
Reply: 5.25

Ask: Report protein stability index, nothing else, for this variant: `V18F`
Reply: 5.13

Ask: Report protein stability index, nothing else, for this variant: `E12F`
Reply: 5.87

Ask: Report protein stability index, nothing else, for this variant: `G7D`
Reply: 5.22

Ask: Report protein stability index, nothing else, for this variant: `M9A`
Reply: 5.28

Ask: Report protein stability index, nothing else, for this variant: `M5S`
Reply: 3.55

Ask: Report protein stability index, nothing else, for this variant: `I6L`
Reply: 5.64

Ask: Report protein stability index, nothing else, for this variant: `T22H`
Reply: 4.89

Ask: Report protein stability index, nothing else, for this variant: `P11G`
Reply: 5.65

Ask: Report protein stability index, nothing else, for this variant: `I6F`
Reply: 5.89

Ask: Report protein stability index, nothing else, for this variant: `D16P`
Reply: 5.66

Ask: Report protein stability index, nothing else, for this variant: `P2A`
Reply: 4.8

Ask: Report protein stability index, nothing else, for this variant: `P23F`
Reply: 4.69

Ask: Report protein stability index, nothing else, for this variant: `Q1D`
Reply: 5.42

Ask: Report protein stability index, nothing else, for this variant: `E24K`
Reply: 4.68

Ask: Report protein stability index, nothing else, for this variant: `T22N`
Reply: 4.56
